Where do the numbers come from? From patent US8361968B2.

For each of the compounds below, state its pIC50.
Target: hOT7T175 (Homo sapiens, UniProt Q969F8, L364H)
Sequence (Q969F8 whole entry L364H): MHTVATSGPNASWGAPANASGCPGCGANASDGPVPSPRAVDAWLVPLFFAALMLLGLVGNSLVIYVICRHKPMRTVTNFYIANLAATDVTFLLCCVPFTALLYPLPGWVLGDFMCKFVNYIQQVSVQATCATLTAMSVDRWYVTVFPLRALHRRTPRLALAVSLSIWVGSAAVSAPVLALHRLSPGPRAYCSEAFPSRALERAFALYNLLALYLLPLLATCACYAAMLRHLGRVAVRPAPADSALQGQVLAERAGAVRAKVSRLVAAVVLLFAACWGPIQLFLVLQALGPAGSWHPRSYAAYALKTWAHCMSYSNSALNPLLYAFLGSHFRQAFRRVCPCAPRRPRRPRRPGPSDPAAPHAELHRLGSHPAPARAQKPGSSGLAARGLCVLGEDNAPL
Experiment: hOT7T175 receptor binding activity: binding inhibition of Cy-5-labeled metastin (40-54) on hOT7T175-expressed CHO cells
Square brackets hold non-standard residues; d marks the D form. Peptide text beside a SMILES is read from it. Arg(Me) = CNC(=N)NCCC[C@H](N)C(=O)O; 2Pal = N[C@@H](Cc1ccccn1)C(=O)O
Interpret pIC50 as the negative base-10 log of the concentration measured in mol/L.

Input: Request: pIC50, test system hOT7T175 (Homo sapiens, UniProt Q969F8, L364H), entry CNC(=N)NCCC[C@H](NC(=O)[C@H](CC(C)C)NC(=O)CNC(=O)[C@H](Cc1ccccn1)NC(=O)[C@H](CO)NC(=O)[C@H](CC(N)=O)NC(=O)[C@H](Cc1c[nH]c2ccccc12)NC(=O)[C@H](CC(N)=O)NC(=O)[C@H](N)Cc1ccc(O)cc1)C(=O)N[C@@H](Cc1ccccc1)C(N)=O [Compound No. 281] (H-[dY]NWNS[2Pal]GL[Arg(Me)]F-NH2)
Output: 6.64

Input: Request: pIC50, test system hOT7T175 (Homo sapiens, UniProt Q969F8, L364H), entry CC(C)C[C@H](NC(=O)CNC(=O)[C@H](Cc1ccccc1)NC(=O)[C@H](CO)NC(=O)[C@H](CC(N)=O)NC(=O)[C@H](Cc1c[nH]c2ccccc12)NC(=O)[C@@H](N)CC(N)=O)C(=O)N[C@@H](CCCNC(=N)N)C(=O)N[C@@H](Cc1ccccc1)C(N)=O [Compound No. 4, des(1)-MS10, reference compound] (H-NWNSFGLRF-NH2; N-terminus assumed)
Output: 6.59

Input: Request: pIC50, test system hOT7T175 (Homo sapiens, UniProt Q969F8, L364H), entry CNC(=N)NCCC[C@H](NC(=O)[C@@H](NC(=O)CNC(=O)[C@H](Cc1ccccc1)NC(=O)[C@H](CO)NC(=O)[C@H](CC(N)=O)NC(=O)[C@H](Cc1c[nH]c2ccccc12)NC(=O)[C@H](CC(N)=O)NC(=O)[C@H](N)Cc1ccc(O)cc1)C(C)C)C(=O)N[C@@H](Cc1ccccc1)C(N)=O [Compound No. 213] (H-[dY]NWNSFGV[Arg(Me)]F-NH2)
Output: 6.72

====

Target: hOT7T175 (Homo sapiens, UniProt Q969F8, L364H)
Assay: Intracellular Ca ion level-increasing activity using FLIPR in hOT7T175/CHO
Format: cell-based
Parameters: expressed in transfected cells; host or cells: CHO/dhfr- cells, obtained from ATCC
Settings: relative, Metastin (1-54) = 1
Ends that are not written are not given here. * marks the point of attachment. Boc = CC(C)(C)OC(=O)*
For each of the substances below, state its Specific Activity (intracellular Ca ion level-increasing activity).
# print the numeric value only

Input: Which measured Specific Activity (intracellular Ca ion level-increasing activity) value corresponds to 3-Pyridylpropionyl-Asn-Ser-Phe-AzaGly-Leu-Arg(Me)-Trp-NH2 [Compound No. 386] ?
Output: 7

Input: Which measured Specific Activity (intracellular Ca ion level-increasing activity) value corresponds to Boc-Tyr-Asn-Trp-Phe-Gly-Leu-Arg-Phe-NH2 (Boc-YNWFGLRF-NH2; SMILES CC(C)C[C@H](NC(=O)CNC(=O)[C@H](Cc1ccccc1)NC(=O)[C@H](Cc1c[nH]c2ccccc12)NC(=O)[C@H](CC(N)=O)NC(=O)[C@H](Cc1ccc(O)cc1)NC(=O)OC(C)(C)C)C(=O)N[C@@H](CCCNC(=N)N)C(=O)N[C@@H](Cc1ccccc1)C(N)=O) [Compound No. 87] ?
Output: 1

Input: Which measured Specific Activity (intracellular Ca ion level-increasing activity) value corresponds to Methylthiocarbamoyl-Sar-D-Tyr-Asn-Trp-Asn-Ser-Phe-Gly-Leu-Arg(Me)-Phe-NH2 [Compound No. 397] ?
Output: 5

Input: Which measured Specific Activity (intracellular Ca ion level-increasing activity) value corresponds to Tyr-Asn-Trp-Phe-Gly-Leu-Arg-Phe-NH2 (YNWFGLRF-NH2) [Compound No. 88] ?
Output: 1

Input: Which measured Specific Activity (intracellular Ca ion level-increasing activity) value corresponds to Tyr-Asn-Trp-Asn-Ser-Phe-Gly-Ala-Arg-Phe-NH2 (YNWNSFGARF-NH2) [Compound No. 45] ?
Output: 1

====

For each of the molecules below, state its IC50.
Target: hOT7T175 (Homo sapiens, UniProt Q969F8, L364H)
Assay: hOT7T175 receptor binding activity: binding inhibition of Cy-5-labeled metastin (40-54) on hOT7T175-expressed CHO cells
Square brackets hold non-standard residues; d marks the D form. Peptide text beside a SMILES is read from it. 1Nal = N[C@@H](Cc1cccc2ccccc12)C(=O)O; Arg(Me) = CNC(=N)NCCC[C@H](N)C(=O)O; azaGly = NNC(=O)O
A complete answer gives the number followed by the unit.

Input: Which measured IC50 value corresponds to CNC(=N)NCCC[C@H](NC(=O)[C@H](CC(C)C)NC(=O)CNC(=O)[C@H](Cc1ccccc1)NC(=O)[C@H](CO)NC(=O)[C@H](CC(N)=O)NC(=O)[C@@H](Cc1c[nH]c2ccccc12)NC(=O)[C@H](CC(N)=O)NC(=O)[C@@H](N)Cc1ccc(O)cc1)C(=O)N[C@@H](Cc1ccccc1)C(N)=O ?
Output: 7.7 nM

Input: Which measured IC50 value corresponds to CC(C)C[C@H](NC(=O)CNC(=O)[C@H](Cc1cccc2ccccc12)NC(=O)[C@H](CO)NC(=O)[C@H](CC(N)=O)NC(=O)[C@H](Cc1c[nH]c2ccccc12)NC(=O)[C@H](CC(N)=O)NC(=O)[C@@H](N)Cc1ccc(O)cc1)C(=O)N[C@@H](CCCNC(=N)N)C(=O)N[C@@H](Cc1ccccc1)C(N)=O [Compound No. 151] (H-YNWNS[1Nal]GLRF-NH2; N-terminus assumed) ?
Output: 300 nM

Input: Which measured IC50 value corresponds to CC[C@H](C)[C@H](NC(=O)[C@H](CC(N)=O)NC(=O)[C@H](N)Cc1ccc(O)cc1)C(=O)N[C@@H](CC(N)=O)C(=O)N[C@@H](CO)C(=O)N[C@@H](Cc1ccccc1)C(=O)NNC(=O)N[C@@H](CC(C)C)C(=O)N[C@@H](CCCNC(=N)NC)C(=O)N[C@@H](Cc1ccccc1)C(N)=O [Compound No. 233] (H-[dY]NINSF[azaGly]L[Arg(Me)]F-NH2) ?
Output: 23 nM

====

Target: hOT7T175 (Homo sapiens, UniProt Q969F8, L364H)
Assay: Intracellular Ca ion level-increasing activity using FLIPR in hOT7T175/CHO
Assay type: cell-based
Design: expressed in transfected cells; host or cells: CHO/dhfr- cells, obtained from ATCC
Settings: relative, Metastin (1-54) = 1
Experimental: Assay for Intracellular Ca Ion Level-Increasing Activity Using Flipr In accordance with the method described in JPA 2000-312590, the intracellular Ca ion level-increasing activity was measured using FLIPR. […] The intracellular Ca ion level-increasing activity of the synthetic peptide in hOT7T175/CHO was determined using FLIPR (Molecular Devices, Inc.). […]
Numbered stars: 1 amine (or outer) side, 2 acyl side, 3 side chain; on linkers, the order of the positions; unused ones are H or OH. Square brackets hold non-standard residues; d marks the D form. Peptide text beside a SMILES is read from it. * marks the point of attachment. X1 = O=C([C@H](Cc1ccc2ccccc2n1)N[*:1])[*:2]; Arg(Me) = CNC(=N)NCCC[C@H](N)C(=O)O; Cha = N[C@@H](CC1CCCCC1)C(=O)O; X3 = NC(=S)[C@H](Cc1ccccc1)N*; azaGly = NNC(=O)O
assayEndpoint: Specific Activity (intracellular Ca ion level-increasing activity)
# print the numeric value only

Input: Which measured Specific Activity (intracellular Ca ion level-increasing activity) value corresponds to CNC(=N)NCCC[C@H](NC(=O)[C@H](CC(C)C)NC(=O)CNC(=O)[C@H](CC1CCCCC1)NC(=O)[C@H](CO)NC(=O)[C@H](CC(N)=O)NC(=O)[C@H](Cc1c[nH]c2ccccc12)NC(=O)[C@H](CC(N)=O)NC(=O)[C@H](N)Cc1ccc(O)cc1)C(=O)N[C@@H](Cc1ccccc1)C(N)=O [Compound No. 203] (H-[dY]NWNS[Cha]GL[Arg(Me)]F-NH2) ?
Output: 10

Input: Which measured Specific Activity (intracellular Ca ion level-increasing activity) value corresponds to CC(C)C[C@H](NC(=O)CNC(=O)[C@H](Cc1ccccc1)NC(=O)[C@H](CO)NC(=O)[C@H](CC(N)=O)NC(=O)[C@H](Cc1c[nH]c2ccccc12)NC(=O)[C@H](CC(N)=O)NC(=O)[C@@H](N)Cc1ccc(O)cc1)C(=O)N[C@@H](CCCNC(=N)N)C(=O)N[C@@H](Cc1ccccc1)C(N)=S [Compound No. 128] (H-YNWNSFGLR-X3) ?
Output: 10

Input: Which measured Specific Activity (intracellular Ca ion level-increasing activity) value corresponds to CNC(=N)NCCC[C@H](NC(=O)[C@H](CC(C)C)NC(=O)NNC(=O)[C@H](Cc1ccccc1)NC(=O)[C@H](CO)NC(=O)[C@H](CC(N)=O)NC(=O)[C@H](Cc1ccc2ccccc2n1)NC(=O)[C@H](CC(N)=O)NC(=O)[C@H](N)Cc1ccc(O)cc1)C(=O)N[C@@H](Cc1ccccc1)C(N)=O [Compound No. 301] (H-[dY]N[X1]NSF[azaGly]L[Arg(Me)]F-NH2) ?
Output: 1

Input: Which measured Specific Activity (intracellular Ca ion level-increasing activity) value corresponds to CC(C)C[C@H](NC(=O)CNC(=O)[C@H](CC1CCCCC1)NC(=O)[C@H](CO)NC(=O)[C@H](CC(N)=O)NC(=O)[C@H](Cc1c[nH]c2ccccc12)NC(=O)[C@H](CC(N)=O)NC(=O)[C@@H](N)Cc1ccc(O)cc1)C(=O)N[C@@H](CCCNC(=N)N)C(=O)N[C@@H](Cc1ccccc1)C(N)=O [Compound No. 156] (H-YNWNS[Cha]GLRF-NH2) ?
Output: 2

Input: Which measured Specific Activity (intracellular Ca ion level-increasing activity) value corresponds to CC(C)C[C@H](NC(=O)CNC(=O)[C@H](Cc1ccccc1)NC(=O)[C@H](CO)NC(=O)[C@H](CC(N)=O)NC(=O)[C@H](Cc1c[nH]c2ccccc12)NC(=O)[C@H](CC(N)=O)NC(=O)[C@@H](N)Cc1ccc(O)cc1)C(=O)N[C@@H](CCCNC(=N)N)C(=O)N[C@@H](Cc1cccc(C(F)(F)F)c1)C(N)=O [Compound No. 200] ?
Output: 10
